assay: RP, Agilent ZORBAX Eclipse Plus C18, 150 × 2.1 mm, 3.5 µm, 40 °C, 0.3 mL/min, estimated dead time 1.1 min; A: water + 0.1% formic acid; B: acetonitrile + 0.1% formic acid; gradient (min/%B) 0/2 1/2 2/20 16.5/98 22/98; conditions: stereoisomer not certain
QUANTITY_NAME: LC retention time (min)
Give just the numeric value; min need not be written.

input: Which LC retention time reading was recorded for the compound CC(C)NCC(O)c1ccc(NS(C)(=O)=O)cc1 (configuration not stated) ?
output: 4.58

input: Which LC retention time reading was recorded for the compound CC(C(=O)O)c1ccc2cc(O)ccc2c1 (configuration not stated) ?
output: 8.5

input: Which LC retention time reading was recorded for the compound CC(C)(C)NCC(O)c1ccc(O)c(CO)c1 (configuration not stated) ?
output: 4.69

input: Which LC retention time reading was recorded for the compound Cc1c(N(C)C)c(=O)n(-c2ccccc2)n1C ?
output: 4.71

input: Which LC retention time reading was recorded for the compound CCCCCCCCCCCCCCCC[N+](C)(C)CC ?
output: 13

input: Which LC retention time reading was recorded for the compound CC(Cn1cnc2c(N)ncnc21)OCP(=O)(O)O (configuration not stated) ?
output: 2.77

input: Which LC retention time reading was recorded for the compound COc1ccccc1-c1nc2ccccc2[nH]1 ?
output: 6.22

---

test: RP, Agilent ZORBAX Eclipse Plus C18, 150 × 2.1 mm, 3.5 µm, 40 °C, 0.3 mL/min, estimated dead time 1.1 min; A: water + 0.1% formic acid; B: acetonitrile + 0.1% formic acid; gradient (min/%B) 0/2 1/2 2/20 16.5/98 22/98; conditions: stereoisomer not certain
Can you tell me LC retention time for the items I'm about to list?
Give just the numeric value; min need not be written.

input: Which LC retention time reading was recorded for the molecule COc1ccccc1Oc1c(NS(=O)(=O)c2ccc(C(C)(C)C)cc2)nc(-c2ncccn2)nc1OCCO ?
output: 12.1

input: Which LC retention time reading was recorded for the molecule CCCCCCCCCCCCOC(=O)c1cc(O)c(O)c(O)c1 ?
output: 16

input: Which LC retention time reading was recorded for the molecule CCC(CC)Nc1c([N+](=O)[O-])cc(C)c(C)c1[N+](=O)[O-] ?
output: 16.2

input: Which LC retention time reading was recorded for the molecule O=C(NC1CCCCC1)N(Cc1ccccc1)Cc1ccccc1 ?
output: 14.1

input: Which LC retention time reading was recorded for the molecule CNC(=C[N+](=O)[O-])NCCS(=O)Cc1ccc(CN(C)C)o1 (configuration not stated) ?
output: 2.94

input: Which LC retention time reading was recorded for the molecule Nc1nc2c(ncn2COC(CO)CO)c(=O)[nH]1 ?
output: 2.23

input: Which LC retention time reading was recorded for the molecule O=c1c(O)c(-c2ccc(O)c(O)c2)oc2cc(O)cc(O)c12 ?
output: 8.07

---

test: RP, Agilent ZORBAX Eclipse Plus C18, 150 × 2.1 mm, 3.5 µm, 40 °C, 0.3 mL/min, estimated dead time 1.1 min; A: water + 0.1% formic acid; B: acetonitrile + 0.1% formic acid; gradient (min/%B) 0/2 1/2 2/20 16.5/98 22/98; settings: stereoisomer not certain
QUANTITY_NAME: LC retention time
Give me the value, and tack the unit on after it.

input: Which LC retention time reading was recorded for the compound O=[N+]([O-])c1ccc(O)c([N+](=O)[O-])c1 ?
output: 9.21 min

input: Which LC retention time reading was recorded for the compound COc1cccc(OC)c1OC ?
output: 9.03 min

input: Which LC retention time reading was recorded for the compound S=c1[nH]c2ccccc2s1 ?
output: 9.12 min

input: Which LC retention time reading was recorded for the compound CC(C)CC(C)Nc1ccc(Nc2ccccc2)cc1 (centres undefined) ?
output: 9.19 min

---

assay: RP, Agilent ZORBAX Eclipse Plus C18, 150 × 2.1 mm, 3.5 µm, 40 °C, 0.3 mL/min, estimated dead time 1.1 min; A: water + 0.1% formic acid; B: acetonitrile + 0.1% formic acid; gradient (min/%B) 0/2 1/2 2/20 16.5/98 22/98; conditions: stereoisomer not certain
Classify as follows. Reported LC retention time greater than or equal to 8 min: True. Reported LC retention time below: False.

input: Would you say [O-]N(O)c1ccc(C[P+](c2ccccc2)(c2ccccc2)c2ccccc2)cc1 shows LC retention time at minimum 8 min?
output: True

input: Would you say CCN(Cc1cccc(S(=O)(=O)O)c1)c1ccc(C(=C2C=CC(=[N+](CC)Cc3cccc(S(=O)(=O)O)c3)C=C2)c2ccccc2S(=O)(=O)[O-])cc1 shows LC retention time at minimum 8 min?
output: False

input: Would you say O=P(Oc1ccccc1)(Oc1ccccc1)Oc1ccccc1 shows LC retention time at minimum 8 min?
output: True

input: Would you say CSc1ccc2c(c1)N(CCC1CCCCN1C)c1ccccc1S2 (stereo not drawn) shows LC retention time at minimum 8 min?
output: True

input: Would you say Cc1cc(C)nc(NS(=O)(=O)c2ccc(N)cc2)n1 shows LC retention time at minimum 8 min?
output: False

input: Would you say CCCCN1C=CN(C)C1C (stereo not drawn) shows LC retention time at minimum 8 min?
output: False

input: Would you say CCOC(=O)c1cncn1C(C)c1ccccc1 (stereo not drawn) shows LC retention time at minimum 8 min?
output: True

input: Would you say C=CC[N+](CC)(CC)Cc1ccccc1 shows LC retention time at minimum 8 min?
output: False

input: Would you say OCc1coc(-c2ccccc2)n1 shows LC retention time at minimum 8 min?
output: False

input: Would you say OCCN(CCO)c1nc(N2CCCCC2)c2nc(N(CCO)CCO)nc(N3CCCCC3)c2n1 shows LC retention time at minimum 8 min?
output: False

input: Would you say COC(=O)C[P+](c1ccccc1)(c1ccccc1)c1ccccc1 shows LC retention time at minimum 8 min?
output: False

input: Would you say O=C([O-])CCCC[P+](c1ccccc1)(c1ccccc1)c1ccccc1 shows LC retention time at minimum 8 min?
output: False

input: Would you say CC(C)NCC(O)COc1cccc2ccccc12 (stereo not drawn) shows LC retention time at minimum 8 min?
output: False

input: Would you say COc1ccc2c3c1OC1C(=O)C=CC4C(C2)N(C)CCC314 (stereo not drawn) shows LC retention time at minimum 8 min?
output: False

input: Would you say COc1ccc(NC(C)=O)cc1 shows LC retention time at minimum 8 min?
output: False

input: Would you say CCCCCCCCCCC(C(=O)c1ccc(OC)c(OC)c1)[N+](C)(C)C (stereo not drawn) shows LC retention time at minimum 8 min?
output: True

input: Would you say CCOC(=O)c1ccc(O)cc1 shows LC retention time at minimum 8 min?
output: True

input: Would you say COc1ccc(C(=O)c2ccc(OC)cc2O)c(O)c1 shows LC retention time at minimum 8 min?
output: True

input: Would you say COc1ccc(C(=O)c2ccccc2O)c(O)c1 shows LC retention time at minimum 8 min?
output: True

input: Would you say Cc1cn(C2CC(O)C(CO)O2)c(=O)[nH]c1=O (stereo not drawn) shows LC retention time at minimum 8 min?
output: False

input: Would you say COCCOC(=O)Nc1cccc(N)c1 shows LC retention time at minimum 8 min?
output: False

input: Would you say CC(C)(C)[P+](=O)C(C)(C)C shows LC retention time at minimum 8 min?
output: False

---

Can you tell me LC retention time for the items I'm about to list?
experiment: RP, Agilent ZORBAX Eclipse Plus C18, 150 × 2.1 mm, 3.5 µm, 40 °C, 0.3 mL/min, estimated dead time 1.1 min; A: water + 0.1% formic acid; B: acetonitrile + 0.1% formic acid; gradient (min/%B) 0/2 1/2 2/20 16.5/98 22/98; details: stereoisomer not certain
Give just the numeric value; min need not be written.

input: Which LC retention time reading was recorded for the compound CC(C)NCC(O)COc1ccc(CC(N)=O)cc1 (stereo unspecified) ?
output: 4.62

input: Which LC retention time reading was recorded for the compound COCP(=O)(c1ccccc1)c1ccccc1 ?
output: 8.67

input: Which LC retention time reading was recorded for the compound CCCCCCOC(=O)c1ccccc1C(=O)OCCCCCC ?
output: 18.1

input: Which LC retention time reading was recorded for the compound O=C1CC(c2ccccc2)Oc2ccccc21 (stereo unspecified) ?
output: 12.6

input: Which LC retention time reading was recorded for the compound CCN(CC)C(=O)c1cccc(C(=O)O)c1 ?
output: 7.36

input: Which LC retention time reading was recorded for the compound C[N+](C)(C)Cc1ccccc1 ?
output: 4.46

input: Which LC retention time reading was recorded for the compound CN1C(C(=O)Nc2ccccn2)=C(O)c2sccc2S1(=O)=O ?
output: 7.36

input: Which LC retention time reading was recorded for the compound CC12CCC3c4ccc(OS(=O)(=O)O)cc4CCC3C1CCC2=O (stereo unspecified) ?
output: 11.1

input: Which LC retention time reading was recorded for the compound Oc1ccc(Nc2ccccc2)cc1 ?
output: 10

input: Which LC retention time reading was recorded for the compound CCCCCCCCOS(=O)(=O)O ?
output: 9.59

input: Which LC retention time reading was recorded for the compound Nc1nc2ccccc2[nH]1 ?
output: 4.79

input: Which LC retention time reading was recorded for the compound CC(=O)C1CCC2C3CCC4=CC(=O)CCC4(C)C3CCC12C (stereo unspecified) ?
output: 13.8

input: Which LC retention time reading was recorded for the compound CNC(=O)ON=CC(C)(C)SC ?
output: 8.4

input: Which LC retention time reading was recorded for the compound O=C1c2ccccc2C(=O)C1c1ccccc1 ?
output: 14.2

input: Which LC retention time reading was recorded for the compound CCCCCCCCCCCCCC[N+](C)(C)C ?
output: 11.5

input: Which LC retention time reading was recorded for the compound COP(=O)(NC(C)=O)SC (stereo unspecified) ?
output: 4.5
